Entry source: patent EP0006128A1

experiment: Acute toxicity in mice; conditions: mouse, in vivo, iv; mice of both sexes, 20 g, single dose i.v., 14 days observation; read-out: DL50 i.v.
measurement-name: LD50 at 336 h (mg/kg)

- CC(CC1(c2ccccc2)c2ccccc2N(C=O)C1C)N(C)C (racemic) [Racemat]: 66
